Biological target: HPK1 (Homo sapiens)
Construct: purchased SignalChem M23-11G
Sequence (Q92918 1-346 limits assumed): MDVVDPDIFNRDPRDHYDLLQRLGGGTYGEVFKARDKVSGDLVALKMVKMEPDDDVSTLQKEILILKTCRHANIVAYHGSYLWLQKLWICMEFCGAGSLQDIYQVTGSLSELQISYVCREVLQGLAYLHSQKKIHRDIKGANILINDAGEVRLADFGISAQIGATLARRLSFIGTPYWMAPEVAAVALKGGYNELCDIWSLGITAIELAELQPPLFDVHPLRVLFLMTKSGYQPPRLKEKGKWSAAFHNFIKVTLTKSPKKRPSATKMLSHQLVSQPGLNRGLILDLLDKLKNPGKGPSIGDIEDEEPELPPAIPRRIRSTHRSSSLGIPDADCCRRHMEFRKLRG
Test: HPK1 Inhibition Assay (kinase reaction, Caliper capillary electrophoresis)
Type: biochemical
Conditions: ratio of the IRAK4 IC50 value to the HPK1 IC50 value
measurement_kind: IRAK4/HPK1 Ratio

INSERT INTO measurements (compound, experimental_target, observed_result) VALUES
  ('COC(=O)NC12CC(c3noc(-c4cnc(Nc5ccc6c(c5)C(C)(C)OC6=O)nc4N[C@H](CO)c4ccccc4)n3)(C1)C2', 'HPK1 (Homo sapiens)', 'C (C=>50)'),
  ('CC1(C)OC(=O)c2ccc(Nc3ncc(-c4nnc(C5CCS(=O)(=O)CC5)o4)c(N[C@H](CO)c4ccccc4)n3)cc21', 'HPK1 (Homo sapiens)', 'B (B=10 to 50)'),
  ('CC(C)(O)c1nnc(-c2cnc(Nc3ccc4c(c3)C(C)(C)OC4=O)nc2N[C@H](CO)c2ccccc2)o1', 'HPK1 (Homo sapiens)', 'C (C=>50)'),
  ('CC/N=C(\NCCCN(C)C)NNC(=O)c1cnc(Nc2ccc3c(c2)C(C)(C)OC3=O)nc1N[C@H](CO)c1ccccc1', 'HPK1 (Homo sapiens)', 'B (B=10 to 50)'),
  ('CC1(C)OC(=O)c2ccc(Nc3cc(NCc4cccnc4)c(-c4nc(C56CCN(CC5)CC6)no4)cn3)nc21', 'HPK1 (Homo sapiens)', 'C (C=>50)'),
  ('CC1(C)OC(=O)c2ccc(Nc3ncc(C(=O)NC4CCN(Cc5ccccc5)C4)c(N[C@H](CO)c4ccccc4)n3)cc21 (stereo partly shown)', 'HPK1 (Homo sapiens)', 'C (C=>50)'),
  ('CC1(C)OC(=O)c2ccc(Nc3ncc(C(=O)NNC(=O)C(C)(O)C(F)(F)F)c(N[C@H](CO)c4ccccc4)n3)cc21 (stereo partly shown)', 'HPK1 (Homo sapiens)', 'B (B=10 to 50)');
